Assay: inhibition of 3D7 malaria parasite growth – strain 3D7 (AID 2306);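 further: 0% = DMSO wells and 100% = chloroquine plus artemisinin control wells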
Conditions: P. falciparum 3D7 erythrocytic growth, LDH absorbance, 72 h; at 2 µM; active compounds read high

{"molecule": "COc1ccc(-c2ccc(NC(=O)c3ccc(Cl)cc3)cc2)cc1CN(C)CCN(C)C", "growth inhibition / %": 97}
{"molecule": "COc1cc2nc(NCCCO)nc(Nc3ccc(Oc4ccccc4)cc3)c2cc1OC", "growth inhibition / %": 101}
{"molecule": "OC[C@H]1CCCN1CC#Cc1cc2c(Nc3ccc(OCc4cccc(F)c4)c(Cl)c3)ncnc2s1", "growth inhibition / %": 89}
{"molecule": "CC(=O)Nc1ccc(C(=O)Nc2cccc(-c3ccc(-c4nc5ccc(C(F)(F)F)cc5[nH]4)s3)c2)cn1", "growth inhibition / %": 100}
{"molecule": "c1cc(Cc2ccc(Nc3c4ccccc4nc4ccccc34)cc2)cc(Nc2c3ccccc3nc3ccccc23)c1", "growth inhibition / %": 100}
{"molecule": "Clc1nc(Cl)c2c(ccn2Cc2ccccc2)n1", "growth inhibition / %": 100}
{"molecule": "O=C(NC1CC1)c1cnc(N2CCC(Oc3ccc(Cl)cc3)CC2)c(Cl)c1", "growth inhibition / %": 86}
{"molecule": "CN(C)Cc1cc2c(O)c(Cc3ccccc3)ccc2o1", "growth inhibition / %": 85}
{"molecule": "COc1ccc(C(=O)CCC(=O)N(Cc2ccc(-c3ccc(CNCCc4ccc(S(C)(=O)=O)cc4)cn3)cc2)Cc2ccc3c(c2)OCO3)cc1F", "growth inhibition / %": 95}
{"molecule": "Fc1ccc(CNc2ncc(-c3ccsc3)c(-c3nccs3)n2)cc1", "growth inhibition / %": 94}
{"molecule": "CC1CCCCN1CCCNc1nc(NCc2ccccc2)c2ccccc2n1 (stereo not given)", "growth inhibition / %": 95}
{"molecule": "CC(=O)Nc1cccc(C(=O)Nc2cccc(-c3ccc(-c4nc5ccc(C(F)(F)F)cc5[nH]4)s3)c2)c1", "growth inhibition / %": 98}
{"molecule": "CNC(=O)C1Cc2c([nH]c3ccc(Cl)cc23)C2(CCN(CCc3ccccc3)CC2)N1 (stereo not given)", "growth inhibition / %": 98}
{"molecule": "Cn1ccc(C(=O)Nc2ccc3c(c2)CN(Cc2ccc(N4CCCC4)o2)CCC3)n1", "growth inhibition / %": 80}
{"molecule": "COc1cc(NC(=O)c2cccs2)c(OC)cc1NC(=O)Nc1cccc(Cl)c1", "growth inhibition / %": 83}
{"molecule": "CCN(CC)CCOc1cc2c(cc1Br)-c1cc(Br)c(OCCN(CC)CC)cc1C2=NO", "growth inhibition / %": 100}
{"molecule": "CCc1cc2c3c(N)nc(N)nc3ccc2n1C(C)CC (stereo not given)", "growth inhibition / %": 100}
{"molecule": "CN(C)CCCOc1ccc(CCNCc2cccc(Oc3ccc(Cl)cc3)c2)cc1", "growth inhibition / %": 94}
{"molecule": "Cc1cc(CN2CC[C@H](NC(=O)c3ccc(Cl)c(Cl)c3)C2)ccc1OC1CCN(C)C1 (stereo not given in full)", "growth inhibition / %": 101}
{"molecule": "CCn1ncc(Cl)c1CN(C)S(=O)(=O)c1ccc(Br)cc1", "growth inhibition / %": 90}

* * *

Target: Plasmodium falciparum protein kinase 6 (PK6, PF3D7_1337100)
Assay: PfPK6 kinase inhibitors, biochemical, TCAMS library (AID 1159586)
Conditions: recombinant PfPK6, Kinase-Glo ATP depletion luminescence
Potency and affinity values are given separately. Calls of active or inactive are those of the source. The rule behind the calls is not given here.

{"entry_smiles": "COc1ccccc1NC(=S)N/N=C/c1ccc(O)cc1O", "outcome": "inactive"}
{"entry_smiles": "CN1CCN(CCCN(Cc2csc(-c3ccc(CNCc4ccccc4)cc3)n2)S(=O)(=O)c2cccc3cccnc23)CC1", "outcome": "inactive"}
{"entry_smiles": "Cc1ccc(F)c(CN2CCC(N3CC(c4ccccc4)(c4ccccc4)OC3=O)CC2)c1Cl", "outcome": "inactive"}
{"entry_smiles": "O=C(c1cccc(-c2noc(C(F)(F)F)n2)c1)N1CCN(c2ccncc2)CC1", "outcome": "inactive"}
{"entry_smiles": "COc1ccc(NC(=O)Nc2ccc(-c3cccc(-c4nc5ccccc5[nH]4)c3)cc2)cc1", "outcome": "inactive"}
